Just for reference, PubChem BioAssay AID2129 is where these values come from.

target: Bcl-2-like protein 1 (Homo sapiens); experiment: Bcl-xL/Bim BH3 interaction blockers – biochemical, fluorescence polarization, HTS, primary screen (AID 2129); details: GST-Bcl-xL / FITC-Bim BH3 peptide fluorescence polarization; at 10.9 µM;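 note: 0% = DMSO wells and 100% = unlabeled Bim-BH3 peptide competitor; inhibitors lower millipolarization by displacing the labeled peptide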
Out of some 320,000 compounds screened, about 2,200 (0.69%) were called active.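 Rule for the calls: active = inhibition above the mean of all tested compounds plus 3 SD, cutoff set per campaign (cut at about 30% in these data); inactive = the rest.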 Shown is part of a subset that was picked to be rich in actives.
Result category, one only: 1 (active), 0 (inactive)

compound	assigned-category
C[n+]1ccc(C(=O)NCc2ccccc2)cc1	0
COc1ccc(C(=O)C2CCCN(C(=O)c3ccc(OC)o3)C2)c(C)c1 (stereo unspecified)	0
C=C(C)C(=O)O[C@H]1C/C(C)=C\C(=O)/C=C(\C)[C@H](O)[C@@H]2OC(=O)C(=C)[C@@H]21	0
Cc1cc(C)cc(NC(=O)NCc2ccccn2)c1	0

Enquiry: Could you kindly confirm the outcome this assay logged for `CC1(C)CCc2nc(SCc3ccccc3)c(C#N)cc2C1` ?
Return: 0

Enquiry: Thanks! And COc1cc(C2/C(=C(\O)c3ccc4c(c3)CC(C)O4)C(=O)C(=O)N2Cc2ccco2)ccc1O (stereo unspecified) ?
Return: 0

---

biological target: Bcl-2-like protein 1 (Homo sapiens); test: Bcl-xL/Bim BH3 interaction blockers – biochemical, fluorescence polarization, HTS, primary screen (AID 2129); details: GST-Bcl-xL / FITC-Bim BH3 peptide fluorescence polarization; at 10.9 µM;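 note: 0% = DMSO wells and 100% = unlabeled Bim-BH3 peptide competitor; inhibitors lower millipolarization by displacing the labeled peptide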
Hit rate of the full screen: of about 320,000 compounds, about 2,200 (0.69%) were called active.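 Rule for the calls: active = inhibition above the mean of all tested compounds plus 3 SD, cutoff set per campaign (cut at about 30% in these data); inactive = the rest.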 What follows is part of a selection rich in actives, with near analogues and random picks from the rest.
Result category, one only: class 1 for active, class 0 for inactive

compound	assigned-category
Cc1c(C(=O)NC(C)C2CC3CCC2C3)cccc1[N+](=O)[O-] (stereo unspecified)	class 0
COC1=C(N2CCOCC2)C(=O)c2ccccc2C1=O	class 0
COc1cccc2cc(S(=O)(=O)c3ccc(C)cc3)/c(=N/NS(=O)(=O)c3ccc(C)cc3)oc12	class 0

Enquiry: Could you kindly confirm the outcome this assay logged for COC(=O)c1ccc(C)c(NC(=O)C2CC(=O)N(C3CCCC(C)C3C)C2)c1 (stereo unspecified) ?
Return: class 0

Enquiry: Thanks! And `O=C1c2ccccc2-c2ncnc3c(N4CCOCC4)cc(N4CCOCC4)c1c23` ?
Return: class 1

Enquiry: Thanks! And `Cc1ccc(CS(=O)(=O)CCC(=O)NCc2ccc(F)cc2)cc1` ?
Return: class 0

Enquiry: Thanks! And `CCOc1ccccc1Nc1ccc2nonc2c1[N+](=O)[O-]` ?
Return: class 0

Enquiry: Thanks! And `Cc1oc2c(c1C(=O)N1CCOCC1)C(=O)c1ccccc1C2=O` ?
Return: class 0

Enquiry: Thanks! And `COc1ccc(CNc2nnnn2C)cc1` ?
Return: class 0

Enquiry: Thanks! And `CCOC(=O)CNc1nc2ccccc2n2c(C)nnc12` ?
Return: class 0

Enquiry: Thanks! And `Cc1cccn2c(=O)c3cc(C#N)c(=O)n(CCCN4CCOCC4)c3nc12` ?
Return: class 0

---

molecular target: Bcl-2-like protein 1 (Homo sapiens); assay: Bcl-xL/Bim BH3 interaction blockers – biochemical, fluorescence polarization, HTS, primary screen (AID 2129); settings: GST-Bcl-xL / FITC-Bim BH3 peptide fluorescence polarization; at 10.9 µM;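 note: 0% = DMSO wells and 100% = unlabeled Bim-BH3 peptide competitor; inhibitors lower millipolarization by displacing the labeled peptide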
The whole screen tested about 320,000 compounds, of which about 2,200 (0.69%) were called active.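 The calls were made as follows: active = inhibition above the mean of all tested compounds plus 3 SD, cutoff set per campaign (cut at about 30% in these data); inactive = the rest.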 This excerpt belongs to a sample that is enriched for actives.
Result category, one only: active, inactive

Take a look at these entries with their results.
molecule	assigned-category
COc1ccccc1NC(=S)N1CCC(NC(=O)C23CC4CC(CC(C4)C2)C3)CC1	inactive
CCCCCCCCCOC1OC(CO)C(O)C(O)C1NC(C)=O (stereo not drawn)	inactive
CCN(CC)CCNC(=O)c1ccc(NC(=O)c2c(F)cccc2Cl)cc1	inactive

Enquiry: Could you kindly confirm the outcome this assay logged for `CCCc1cc(=O)[nH]c(SCC(=O)N2CCN(S(=O)(=O)c3ccc(C)cc3C)CC2)n1` ?
Return: inactive

Enquiry: Thanks! And `Clc1ccccc1CSc1nnc(-c2ccco2)c(-c2ccco2)n1` ?
Return: active

Enquiry: Thanks! And `COc1ccc(NS(=O)(=O)c2ccc(F)cc2F)cn1` ?
Return: inactive
